System tested: hGLP-1R (Homo sapiens)
Run description: GLP-1R agonist activity measurement (cell-based luciferase assay)
Test context: CHO-K1/hGLP-1R/CRE-luciferase cell line, 4 h treatment, Bright-Glo luminescence
Label condition met when EC50 is strictly below 0.1 nM; otherwise label condition not met.

Worked examples follow.
Compound | Assigned label
CC1(c2ccc(Cl)cc2F)Oc2cccc(-c3ccc(Cc4nc5ccc(C(=O)O)cc5n4C[C@@H]4CCCO4)cc3)c2O1 (stereo partly drawn) | condition not met
CCn1cncc1Cn1c(Cc2ccc(-c3cccc4c3OC(C)(c3ccc(Cl)cc3F)O4)cc2)nc2ccc(C(=O)O)cc21 (stereo not drawn) | condition met

Req: Determine whether this compound shows EC50 lower than 0.1 nM (ties excluded): `O=C(O)c1ccc2nc(Cc3ccc(-c4cccnc4OCc4ccc(Cl)cc4F)cc3)n(Cc3cnco3)c2c1`
Resp: condition not met

Req: Determine whether this compound shows EC50 lower than 0.1 nM (ties excluded): CC1(c2ccc(Cl)cc2F)Oc2cccc(-c3ccc(Cc4nc5ccc(C(=O)O)cc5n4Cc4cnco4)cc3F)c2O1 (stereo not drawn)
Resp: condition not met

###

System tested: UniProtKB P43220
Run description: GLP-1R agonist activity measurement (cell-based luciferase assay)
Test context: CHO-K1/hGLP-1R/CRE-luciferase cell line, 4 h treatment, Bright-Glo luminescence
Measured quantity: EC50 (nM)
Please give a number only; it is taken to be in nM.

Consider the reported EC50 for these compounds:
Compound | Measured quantity | Val
O=C(O)c1ccc2nc(Cc3ccc(-c4cccnc4OCc4ccc(Cl)cc4F)cc3)n(C[C@@H]3CCO3)c2c1 [Example 1] | EC50 | 0.316
CCCn1cnnc1Cn1c(Cc2ccc(-c3cccc4c3OC(C)(c3ccc(Cl)cc3F)O4)c(F)c2)nc2ccc(C(=O)O)cc21 (stereo not shown) [Example 9] | EC50 | 0.772

Turning now to a further compound:
Input CCCn1cnnc1Cn1c(Cc2ccc(-c3cccc4c3OC(C)(c3ccc(Cl)cc3F)O4)cc2)nc2ccc(C(=O)O)cc21 (stereo not shown) [Example 8] . Output EC50: 0.914

###

The following compounds are shown together with reported pEC50 values.
System tested: hGLP-1R (Homo sapiens, UniProt P43220)
Sequence (P43220 24-463): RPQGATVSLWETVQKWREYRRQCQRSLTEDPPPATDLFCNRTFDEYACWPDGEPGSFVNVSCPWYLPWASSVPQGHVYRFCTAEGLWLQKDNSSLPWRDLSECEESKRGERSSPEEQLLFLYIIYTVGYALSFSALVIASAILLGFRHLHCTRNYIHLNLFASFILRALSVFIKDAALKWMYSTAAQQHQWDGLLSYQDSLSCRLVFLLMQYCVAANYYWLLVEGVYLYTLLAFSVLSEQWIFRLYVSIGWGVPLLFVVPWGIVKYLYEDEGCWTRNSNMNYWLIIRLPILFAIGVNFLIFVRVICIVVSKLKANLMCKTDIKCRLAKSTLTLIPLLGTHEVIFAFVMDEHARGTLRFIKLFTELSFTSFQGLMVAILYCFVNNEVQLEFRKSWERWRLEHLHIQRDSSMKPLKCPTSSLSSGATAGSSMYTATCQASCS
Run description: GLP-1R agonist activity measurement (cell-based luciferase assay)
Test context: CHO-K1/hGLP-1R/CRE-luciferase cell line, 4 h treatment, Bright-Glo luminescence
Lab note: report pEC50 as minus log10 of the concentration in molar units, number only.

Consider the reported pEC50 for these compounds:
Compound | Val
CC1(c2ccc(Cl)cc2F)Oc2cccc(-c3ccc(Cc4nc5ccc(C(=O)O)cc5n4C[C@@H]4CCO4)cc3)c2O1 (some centres unmarked) | 9.97
CC1(c2ccc(Cl)cc2F)Oc2cccc(-c3ccc(Cc4nc5ccc(C(=O)O)cc5n4C[C@@H]4CCO4)cc3F)c2O1 (some centres unmarked) | 10.39
CCn1cncc1Cn1c(Cc2ccc(-c3cccc4c3OC(C)(c3ccc(Cl)cc3F)O4)c(F)c2)nc2ccc(C(=O)O)cc21 (centres unmarked) | 10.59

Turning now to a further compound:
Input CC1(c2ccc(Cl)cc2F)Oc2cccc(-c3ccc(Cc4nc5ccc(C(=O)O)cc5n4Cc4cnco4)cc3)c2O1 (centres unmarked) . Output pEC50: 9.56
